assay: Dynamic surface tension, bubble pressure tensiometer; assay type: physicochemical; details: surface age 10 ms, 23° C.
readout type: dynamic surface tension

CCCCCCC(CCCC)COC(=O)CCCCCN(C)C.Cc1ccc(S(=O)(=O)O)cc1 (centres unmarked) [Example 2a]; about 46 mN/m
CCCCCCC(CCCC)COC(=O)CCCCCN.Cc1ccc(S(=O)(=O)O)cc1 (centres unmarked) [Example 7a]; about 46 mN/m

---

Could you please report measured CA of Surfactant (contact angle) for the items listed next?
assay: Wetting properties: contact angle on solid substrates, optical contact angle goniometer; type: physicochemical; conditions: substrate Polyethylene terephthalate, 10x CMC
Please give a number only; it is taken to be in °.

Value of measured CA of Surfactant (contact angle) for the entry CCCCCCC(CCCC)COC(=O)CCCCCN.Cc1ccc(S(=O)(=O)O)cc1 (centres unmarked) : 13.2

Value of measured CA of Surfactant (contact angle) for the entry CCCCCCC(CCCC)COC(=O)CCCCCN.Cl (centres unmarked) : 20.1

Value of measured CA of Surfactant (contact angle) for the entry CCCCCCC(CCCC)COC(=O)CCCCC[N+](C)(C)CCCCS(=O)(=O)[O-] (centres unmarked) : 29.8

Value of measured CA of Surfactant (contact angle) for the entry CCCCCCC(CCCC)COC(=O)CCCCC[N+](C)(C)[O-] (centres unmarked) : 9.2

Value of measured CA of Surfactant (contact angle) for the entry CCCCCCC(CCCC)COC(=O)CCCCCN(C)C.Cc1ccc(S(=O)(=O)O)cc1 (centres unmarked) : 7.7

---

Could you please report measured surface tension at the CMC for the items listed next?
assay: Critical micelle concentration (CMC) from surface tension versus concentration, Wilhelmy plate method; assay type: physicochemical; conditions: from plot of surface tension versus concentration, pH=7

Value of measured surface tension at the CMC for the entry CCCCCCC(CCCC)COC(=O)CCCCC[N+](C)(C)CCCCS(=O)(=O)[O-] (stereo not drawn) [Example 4a] : ≤ 32 mN/m

Value of measured surface tension at the CMC for the entry CCCCCCC(CCCC)COC(=O)CCCCC[N+](C)(C)[O-] (stereo not drawn) [Example 5a] : ≤ 28 mN/m

Value of measured surface tension at the CMC for the entry CCCCCCC(CCCC)COC(=O)CCCCCN(C)C.Cc1ccc(S(=O)(=O)O)cc1 (stereo not drawn) [Example 2a] : ≤ 30 mN/m

Value of measured surface tension at the CMC for the entry CCCCCCC(CCCC)COC(=O)CCCCC[N+](C)(C)C.[I-] (stereo not drawn) [Example 1a] : ≤ 27 mN/m

Value of measured surface tension at the CMC for the entry CCCCCCC(CCCC)COC(=O)CCCCCN.Cc1ccc(S(=O)(=O)O)cc1 (stereo not drawn) [Example 7a] : ≤ 30 mN/m

Value of measured surface tension at the CMC for the entry CCCCCCC(CCCC)COC(=O)CCCCCN.Cl (stereo not drawn) [Example 6a] : ≤ 30 mN/m

---

assay: Wetting properties: contact angle on solid substrates, optical contact angle goniometer; type: physicochemical; details: substrate Polyethylene-HD, 10x CMC
Could you please report measured CA of Surfactant (contact angle) for the items listed next?
Please give a number only; it is taken to be in °.

Value of measured CA of Surfactant (contact angle) for the entry CCCCCCC(CCCC)COC(=O)CCCCC[N+](C)(C)CCCCS(=O)(=O)[O-] (stereo not shown) [Example 4a] : 44.4

Value of measured CA of Surfactant (contact angle) for the entry CCCCCCC(CCCC)COC(=O)CCCCCN.Cl (stereo not shown) [Example 6a] : 25.8

Value of measured CA of Surfactant (contact angle) for the entry CCCCCCC(CCCC)COC(=O)CCCCCN.Cc1ccc(S(=O)(=O)O)cc1 (stereo not shown) [Example 7a] : 14.6

Value of measured CA of Surfactant (contact angle) for the entry CCCCCCC(CCCC)COC(=O)CCCCCN(C)C.Cc1ccc(S(=O)(=O)O)cc1 (stereo not shown) [Example 2a] : 24.3

---

assay: Wetting properties: contact angle on solid substrates, optical contact angle goniometer; format: physicochemical; settings: substrate Nylon, 10x CMC
readout type: CA of Surfactant (contact angle) (°)
Please give a number only; it is taken to be in °.

Value of measured CA of Surfactant (contact angle) for the entry CCCCCCC(CCCC)COC(=O)CCCCCN.Cl (centres unmarked) : 24.5

Value of measured CA of Surfactant (contact angle) for the entry CCCCCCC(CCCC)COC(=O)CCCCCN(C)C.Cc1ccc(S(=O)(=O)O)cc1 (centres unmarked) : 13.5

Value of measured CA of Surfactant (contact angle) for the entry CCCCCCC(CCCC)COC(=O)CCCCC[N+](C)(C)CCCCS(=O)(=O)[O-] (centres unmarked) : 28.7

Value of measured CA of Surfactant (contact angle) for the entry CCCCCCC(CCCC)COC(=O)CCCCCN.Cc1ccc(S(=O)(=O)O)cc1 (centres unmarked) : 12.6

Value of measured CA of Surfactant (contact angle) for the entry CCCCCCC(CCCC)COC(=O)CCCCC[N+](C)(C)[O-] (centres unmarked) : 38.5

---

assay: Wetting properties: contact angle on solid substrates, optical contact angle goniometer; format: physicochemical; conditions: substrate Teflon, 10x CMC
Could you please report measured CA of Surfactant (contact angle) for the items listed next?
Please give a number only; it is taken to be in °.

Value of measured CA of Surfactant (contact angle) for the entry CCCCCCC(CCCC)COC(=O)CCCCCN.Cc1ccc(S(=O)(=O)O)cc1 (stereo not shown) : 49.4

Value of measured CA of Surfactant (contact angle) for the entry CCCCCCC(CCCC)COC(=O)CCCCCN(C)C.Cc1ccc(S(=O)(=O)O)cc1 (stereo not shown) : 48.2

Value of measured CA of Surfactant (contact angle) for the entry CCCCCCC(CCCC)COC(=O)CCCCCN.Cl (stereo not shown) : 48.7

Value of measured CA of Surfactant (contact angle) for the entry CCCCCCC(CCCC)COC(=O)CCCCC[N+](C)(C)CCCCS(=O)(=O)[O-] (stereo not shown) : 62.2

---

experiment: Dynamic surface tension, bubble pressure tensiometer; type: physicochemical; conditions: surface age 8,000 ms, 23° C.
readout type: dynamic surface tension

CCCCCCC(CCCC)COC(=O)CCCCCN(C)C.Cc1ccc(S(=O)(=O)O)cc1 (centres unmarked); about 27 mN/m
CCCCCCC(CCCC)COC(=O)CCCCCN.Cc1ccc(S(=O)(=O)O)cc1 (centres unmarked); about 27 mN/m

Origin of the recorded values: patent US11857515B2
